assay: NCI Yeast Anticancer Drug Screen. Data for the rad50 strain (AID 155);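 further: 0% = growth of vehicle-only cultures of the same strain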; settings: S. cerevisiae rad50 strain growth inhibition; at 50.0 µM; hits give high values
About 79,000 compounds went through this panel and 15% of them were active in at least one assay; those are over-represented in the sample as a whole. Where a SMILES comes first, the peptide text is derived from it. [ ]: non-standard residue; d: D form. The star is where a group is joined. Cbz = O=C(OCc1ccccc1)*; Nva = CCC[CH](N)C(=O)O
Assign class by growth inhibition: not lower than 10% means label 1; lower than 10% means label 0.

As a guide, the following entries are already answered.
# compound, label
measured = [
    ("O=Cc1c2c(cc3c1CC1(C3)Cc3cc4c(c(C=O)c3C1)CCCC4)CCCC2", "label 0"),
    ("CCCCCCCCCCCCc1ccc(CS)cc1", "label 1"),
]

[ask] hey, is growth inhibition for this one >= 10%? COc1cc2c(cc1OC)C(C(CBr)CBr)N(C1CCCC1)CC2 (stereo not given)
[reply] label 0

[ask] Given the entry N/C(=N\O)c1ccccc1 , answer whether its growth inhibition meets or surpasses 10%.
[reply] label 1

[ask] Hello, I need to know if CCCC(NC(=O)OCc1ccccc1)C(=O)NC(Cc1ccccc1)C(N)=O (stereo not given) (Cbz-[Nva]-Phe-NH2; configuration not given here) has measured growth inhibition not below 10%. Thanks!
[reply] label 0

----------
test: NCI Yeast Anticancer Drug Screen. Data for the bub3 strain (AID 167); settings: S. cerevisiae bub3 mutant strain, at 50.0 µM, hits give high values
Compounds without any hit were thinned out: in the full panel of roughly 79,000, 15% have a hit.
assay endpoint: growth inhibition (%)
Report the value in % with no unit label.

Consider the following illustrative entries.
# compound, reported value
measured = [
    ("C1CCC(C(CCCCC(C2CCCCC2)C2CCCCC2)C2CCCCC2)CC1", -0.7),
    ("O=C1c2cc3c(-c4ccccc4)oc(-c4ccccc4)c3cc2C(=O)c2c(O)ccc(O)c21", -5.75),
    ("Cc1csc(NC(=O)C2C3CCC(O3)C2C(=O)O)n1 (configuration not stated)", -4.95),
    ("COC(=O)C1CCC(/C(C#N)=C2/CCC(C(=O)OC)[N-]2)=N1.COC(=O)C1CCC(/C(C#N)=C2/CCC(C(=O)OC)[N-]2)=N1.[Cu+2] (configuration not stated)", -24.5),
    ("COc1ccc2[nH]c3c(c2c1)-c1ncncc1CC3", 40.4),
    ("Cc1ccc(S(=O)(=O)OC(c2ccc(Cl)cc2Cl)C2OC(=O)c3ccccc32)cc1 (configuration not stated)", 15),
]

Attention now shifts to the item below.
[ask] For the compound CCOC(=O)C1=C(c2ccccc2)NC(c2ccccc2)=C(C(=O)OCC)c2c1c(=O)cc[nH]c2=O , report growth inhibition.
[reply] -9.9

----------
assay: NCI Yeast Anticancer Drug Screen. Data for the bub3 strain (AID 167); details: S. cerevisiae bub3 mutant strain, at 50.0 µM, hits give high values
Compounds without any hit were thinned out: in the full panel of roughly 79,000, 15% have a hit.
assay endpoint: growth inhibition (%)
Supply the numeric figure in %, leaving out any unit text.

Some compounds with known growth inhibition results, for comparison:
# compound, growth inhibition (%)
rows = [
    ("CC(C)=CC1CCc2ccccc2N1S(=O)(=O)c1ccc(C)cc1 (stereo not given)", -31.7),
    ("CN1C(C(=O)Nc2nccs2)=C(O)c2ccccc2S1(=O)=O", 7.05),
    ("Cc1ccc(C)c(NC(=O)CCC(=O)C(C#N)c2nc3ccccc3s2)c1 (stereo not given)", 3.7),
    ("CC1COC(C)(C)O1 (stereo not given)", 8),
]

Field: next compound
[ask] Identify measured growth inhibition associated with O=C(CC(=O)N1N=C(n2ccc3ccccc32)CC1c1ccccc1)Nc1cccc(Cl)c1 (stereo not given)
[reply] -3.5

----------
test: NCI Yeast Anticancer Drug Screen. Data for the rad50 strain (AID 155);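 further: 0% = growth of vehicle-only cultures of the same strain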; details: S. cerevisiae rad50 strain growth inhibition; at 50.0 µM; hits give high values
This is part of a sample that, as a whole, favours compounds with a hit. Of some 79,000 tested, about 15% had one in any assay.
Threshold rule: growth inhibition greater than or equal to 10% is Yes; below that, No.

Below are worked cases with known answers.
# compound, label
rows = [
    ("COc1ccccc1OCC(O)CNc1ccc(Cl)cc1C(=O)c1ccccc1 (configuration not stated)", "No"),
    ("CCNC(=O)OC(C)C(O)c1ccccc1 (configuration not stated)", "No"),
    ("O=C(Nc1ccccc1C/C(=N/O)c1ccc2c(c1)OCO2)c1ccccc1", "Yes"),
    ("O=C(NCCCCCCNC(=O)OCCSCCn1cc(C(=O)NC(=O)OCc2ccccc2)c(=O)[nH]c1=O)OCCSCCn1cc(C(=O)NC(=O)OCc2ccccc2)c(=O)[nH]c1=O", "No"),
    ("c1ccc(-c2nnn(CCN3CCCCC3)n2)cc1", "Yes"),
]

[ask] Could you tell me if the measured growth inhibition of Fc1cccc(CSC(=S)Nc2ccc(Cl)c(C(F)(F)F)c2)c1 reaches 10% or more?
[reply] Yes

[ask] Could you please find out whether O=C(Nc1ccc(Cl)cc1)C(=O)C1=C(O)c2ccccc2OC1 has growth inhibition that meets 10% or exceeds it?
[reply] Yes

[ask] Please check the record CCc1n[nH]c(=O)n1/N=C/c1c(O)ccc2ccccc12 and state if its growth inhibition is at or above 10%.
[reply] No

[ask] Identify whether the reported growth inhibition of the following compound is 10% or greater: Cc1nc(N)[nH]c(=O)c1CCCN(c1ccccc1)S(=O)(=O)c1ccc(N)cc1
[reply] No

----------
test: NCI Yeast Anticancer Drug Screen. Data for the mlh1 rad18 strain (AID 175); details: S. cerevisiae mlh1 rad18 strain growth inhibition; at 50.0 µM; hits give high values
This is part of a sample that, as a whole, favours compounds with a hit. Of some 79,000 tested, about 15% had one in any assay.
assay endpoint: growth inhibition (%)
Please reply with the bare figure in % and do not write the unit itself.

Worked cases, growth inhibition given:
# entry smiles, growth inhibition (%)
measured = [
    ("CSC(=N/N=C(\\C)c1ccccn1)SC", 5.85),
    ("CC(=S)N/C=C/c1c(C(=O)O)cc([N+](=O)[O-])cc1[N+](=O)[O-]", 4.7),
    ("CC(=O)Nc1cc(OC(C)=O)nc2c1CCC2", 11.6),
]

[ask] Entry C[S+](C)CCS(=O)(=O)[O-] needs its growth inhibition filled in; supply it.
[reply] -13.2

[ask] Report growth inhibition for CC(=O)NCC(N)=S
[reply] 4

----------
Listing of entries alongside the reported growth inhibition.
assay: NCI Yeast Anticancer Drug Screen. Data for the rad50 strain (AID 155);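 further: 0% = growth of vehicle-only cultures of the same strain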; conditions: S. cerevisiae rad50 strain growth inhibition; at 50.0 µM; hits give high values
Compounds without any hit were thinned out: in the full panel of roughly 79,000, 15% have a hit.
Please give a number only; it is taken to be in %.

Record excerpt, results attached:
# compound, growth inhibition (%)
records = [
    ("O=C(Nc1ccc(C(F)(F)F)cc1)NC(F)(F)F", -61.1),
    ("O/N=C/c1ccc(Cc2ccccc2)o1", 15.7),
    ("COc1cc(CCCCC(=O)O)cc(Br)c1OC", -17.7),
    ("CCOC(=O)C1CC(=O)C2/C(=C(\\O)c3ccccc3)C=C([N+](=O)[O-])C1C2[N+](=O)[O-] (stereo not drawn)", 3),
    ("NC(N)=NS(=O)(=O)c1ccc(N=Cc2c3ccccc3nc3ccccc23)cc1", 98.7),
]

[ask] Tell us which growth inhibition value is on record for CCOC(=O)c1[nH]c(COC(C)=O)c2c1CCCCCCCCCC2
[reply] -6.1

[ask] Look up and state reported growth inhibition for O=c1c2c3c(sc2nc2n1N=CN(c1ccc(Cl)cc1)C2)CCCC3
[reply] 8.7

[ask] Answer with the recorded growth inhibition for the compound listed here: COc1ccc2cccc(C(=O)O)c2c1
[reply] 1.3

[ask] Provide growth inhibition value for the following compound: O=S(O)CCCSSc1ccccc1
[reply] 38.5

[ask] Given the compound COc1cc(OC)cc(N2CCC(c3c(N)nc(N)nc3Cl)CC2)c1 , write its reported growth inhibition.
[reply] -4.1

[ask] Indicate its recorded growth inhibition; the compound in question is N#Cc1c(-c2ccco2)cc(-c2ccc(N)cc2)[nH]c1=O
[reply] -0.6

----------
assay: NCI Yeast Anticancer Drug Screen. Data for the mlh1 rad18 strain (AID 175); conditions: S. cerevisiae mlh1 rad18 strain growth inhibition; at 50.0 µM; hits give high values
About 79,000 compounds went through this panel and 15% of them were active in at least one assay; those are over-represented in the sample as a whole.
Measured growth inhibition, listed per entry for reference.
Report the figure in % without appending any unit label.

// below: answered compounds
# compound, growth inhibition (%)
records = [
    ("CCCCC(CCCC)(C(=O)NC)c1ccccc1", -23.5),
    ("CC(CNC(N)=O)(CNC(N)=O)c1ccccc1", -25.1),
]

[ask] Specify growth inhibition for CCCNc1ncnc2[nH]ncc12 and stop.
[reply] -32

[ask] Entry O=C1/C(=C/c2ccc3c(c2)CCC3)Cc2cc3c(cc21)CCC3 needs its growth inhibition filled in; supply it.
[reply] 4.75

[ask] Supply recorded growth inhibition for COc1cc2[nH]c3c(c2cc1OC)CCN[C@]31CC[C@]2(CC3c4c(cc(OC)c(O)c42)CCN3C)C[C@H]1OC (stereo partly drawn) here.
[reply] 7.35

[ask] Please report the measured growth inhibition for CCCCC1SC2=NCCN2C1(O)c1ccc(Cl)cc1 (stereo not drawn)
[reply] 26.5

[ask] Identify measured growth inhibition associated with CCOC12CC(OC(=O)N1)C(C)C1OC1(C)C(OC(=O)C(C)N(C)C(C)=O)CC(=O)N(C)c1cc(cc(OC)c1Cl)C/C(C)=C/C=CC2OC (stereo not drawn)
[reply] -5.25

[ask] # return recorded growth inhibition for input CC1=C2C(=CC(C)(CO)C2O)C(O)C(C)(O)C12CC2 (stereo not drawn)
[reply] -29.8

[ask] Please list growth inhibition recorded for the compound CCOCC(=O)NC1Cc2cc(OC)c(OC)cc2C1O (stereo not drawn)
[reply] 15.6

[ask] Look up and state reported growth inhibition for O=C(NC(=O)c1ccccc1[N+](=O)[O-])Nc1ccc(Oc2ncc(Br)cn2)c(Cl)c1
[reply] -56.8

Just for reference, PubChem BioAssay (NCI) is where these values come from.
